Give measured EC50 for each item. Keep answers brief.
Target: mGlu4 (Homo sapiens)
Assay: Activities on metabotropic glutamate receptor 4 (EC50; readout marked IP or by a symbol)
Format: cell-based
Conditions: values marked IP; mean ± spread (n)
Put your answer as a value accompanied by its unit after it.

Req: Hello, please tell me recorded EC50 for this one: NC(c1cccc([N+](=O)[O-])c1)P(=O)(O)CC[C@H](N)C(=O)O (stereo partly shown)
Resp: 0.54 µM

Req: Entry COc1cc(C(O)P(=O)(O)CC[C@H](N)C(=O)O)cc([N+](=O)[O-])c1O (mixture of isomers) needs its EC50 filled in; supply it.
Resp: 2.2 µM

Req: Find the measured EC50 of COc1ccc(C(O)P(=O)(O)CC[C@H](N)C(=O)O)cc1[N+](=O)[O-] (stereo partly shown) and report it.
Resp: 0.5 µM

Req: Entry N[C@@H](CCP(=O)(O)Cc1cccc([N+](=O)[O-])c1)C(=O)O needs its EC50 filled in; supply it.
Resp: 0.8 µM

* * *

Molecular target: mGlu4 (Homo sapiens, UniProt Q14833)
Sequence (Q14833 33-912): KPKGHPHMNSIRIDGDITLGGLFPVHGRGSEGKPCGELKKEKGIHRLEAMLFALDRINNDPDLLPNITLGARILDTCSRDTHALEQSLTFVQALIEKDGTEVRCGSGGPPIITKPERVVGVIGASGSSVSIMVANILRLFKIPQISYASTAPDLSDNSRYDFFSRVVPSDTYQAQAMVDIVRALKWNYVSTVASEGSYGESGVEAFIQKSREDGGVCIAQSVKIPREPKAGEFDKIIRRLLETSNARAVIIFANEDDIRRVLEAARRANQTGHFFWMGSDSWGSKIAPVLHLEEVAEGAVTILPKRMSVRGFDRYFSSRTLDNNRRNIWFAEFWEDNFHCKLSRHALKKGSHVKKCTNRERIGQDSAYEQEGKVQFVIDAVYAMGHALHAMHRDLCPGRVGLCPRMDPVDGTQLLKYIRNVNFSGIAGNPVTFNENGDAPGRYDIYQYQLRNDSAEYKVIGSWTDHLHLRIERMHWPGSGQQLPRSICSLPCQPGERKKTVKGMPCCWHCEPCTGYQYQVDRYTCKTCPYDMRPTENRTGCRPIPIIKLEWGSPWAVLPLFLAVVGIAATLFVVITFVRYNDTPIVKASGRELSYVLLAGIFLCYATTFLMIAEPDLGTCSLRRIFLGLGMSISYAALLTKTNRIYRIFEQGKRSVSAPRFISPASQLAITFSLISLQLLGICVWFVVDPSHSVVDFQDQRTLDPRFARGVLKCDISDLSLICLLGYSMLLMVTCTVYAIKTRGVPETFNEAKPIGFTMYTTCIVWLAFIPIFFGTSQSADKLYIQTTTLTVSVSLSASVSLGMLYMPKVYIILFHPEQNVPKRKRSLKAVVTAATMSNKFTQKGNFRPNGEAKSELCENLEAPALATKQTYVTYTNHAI
Test: Activities on metabotropic glutamate receptor 4 (EC50; readout marked IP or by a symbol)
Assay type: cell-based
Conditions: ratio of mGlu8 EC50 to mGlu4 EC50, one per pair of values (readout/batch)
Counter-ions that a name gives are not always drawn.
Could you please report measured mGlu8/4 EC50 ratio for the items listed next?
The answer should be a number; do not append a unit.

Req: Tell me its mGlu8/4 EC50 ratio on mGlu4 (Homo sapiens, UniProt Q14833): COc1cc(CP(=O)(O)CC[C@H](N)C(=O)O)cc([N+](=O)[O-])c1O.N [LSP3-2134]
Resp: 0.85

Req: Provide mGlu8/4 EC50 ratio, tested on mGlu4 (Homo sapiens, UniProt Q14833), for COc1ccc(C(O)P(=O)(O)CC[C@H](N)C(=O)O)cc1[N+](=O)[O-] (single isomer, unassigned) [LSP2-6146-II, hydrochloride] .
Resp: 1.3

Req: Enter measured mGlu8/4 EC50 ratio, system mGlu4 (Homo sapiens, UniProt Q14833), for the compound shown: N[C@@H](CCP(=O)(O)C(O)c1cccc(OCC(=O)O)c1)C(=O)O (single isomer, unassigned) [LSP3-3108-I]
Resp: 7.4

Req: State recorded mGlu8/4 EC50 ratio with mGlu4 (Homo sapiens, UniProt Q14833), entry NC(c1cccc([N+](=O)[O-])c1)P(=O)(O)CC[C@H](N)C(=O)O (stereo partly shown) [LSP1-3131] , no comment.
Resp: 4.1

Req: GET mGlu8/4 EC50 ratio where system = mGlu4 (Homo sapiens, UniProt Q14833) and item = Cl.N[C@@H](CCP(=O)(O)C(O)c1ccc(O)c([N+](=O)[O-])c1)C(=O)O (single isomer, unassigned) [LSP3-2074-II]
Resp: 8.5

Req: Enter recorded mGlu8/4 EC50 ratio with mGlu4 (Homo sapiens, UniProt Q14833) for N[C@@H](CCP(=O)(O)C(O)c1cccc(OCC(=O)O)c1)C(=O)O (stereo partly shown) [LSP3-3099] here.
Resp: 9.4

Req: Write down measured mGlu8/4 EC50 ratio (mGlu4 (Homo sapiens, UniProt Q14833)) for this compound. CCOc1cc(C(O)P(=O)(O)CC[C@H](N)C(=O)O)cc([N+](=O)[O-])c1O (single isomer, unassigned) [LSP3-1143-II, hydrochloride]
Resp: 1.4
